Experiment: Peptide half-lives in human plasma in vitro (1H-NMR spectroscopy)
Type: in vitro ADME
Conditions: human, plasma, 1H-NMR, 37° C., peptide 3 mg/ml; read-out: T1/2, half-life in human plasma in vitro
endpoint_label: half-life (min)
Numbers only here, please. The scale is min.

Identify the reported half-life for the following entry. H-KKRAARATS-NH2 [MLC11-19]
32

###

Settings: rabbit, in vivo
Non-standard residues stand in square brackets, D forms with d. Residues, ends and D or L forms follow the SMILES beside them.
endpoint_label: LD50

Identify the reported LD50 for the following entry. C[C@H](NC(=O)[C@H](C)NC(=O)[C@H](CCCNC(=N)N)NC(=O)[C@@H](CCCCN)NC(=O)[C@@H](N)CCCCN)C(=O)N[C@@H](CCCNC(=N)N)C(=O)N[C@@H](C)C(=O)N[C@H](C(=O)N[C@@H](CO)C(N)=O)[C@@H](C)O [PIK7] (H-K[dK]RAARATS-NH2)
> 10 mg/kg
